Biological target: MNK1a (Homo sapiens (Human), UniProt Q9BUB5)
Sequence (Q9BUB5 other isoform, or with tags, fused parts or gaps): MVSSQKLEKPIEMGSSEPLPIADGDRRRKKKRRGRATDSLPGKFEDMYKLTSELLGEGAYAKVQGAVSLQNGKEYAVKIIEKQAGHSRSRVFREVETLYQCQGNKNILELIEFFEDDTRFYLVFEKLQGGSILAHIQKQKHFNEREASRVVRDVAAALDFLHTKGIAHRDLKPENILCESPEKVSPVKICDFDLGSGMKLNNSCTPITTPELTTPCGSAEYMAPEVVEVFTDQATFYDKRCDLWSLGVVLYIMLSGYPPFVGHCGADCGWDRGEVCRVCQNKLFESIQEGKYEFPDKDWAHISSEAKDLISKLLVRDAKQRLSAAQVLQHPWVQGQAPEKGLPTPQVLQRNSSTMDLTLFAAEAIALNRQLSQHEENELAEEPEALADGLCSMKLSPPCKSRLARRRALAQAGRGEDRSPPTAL
Test: MNK1 in vitro kinase assay (Assay 3), Z'-LYTE
Type: biochemical
Conditions: compound concentration of 1 μM, read-out: MNK1 % INH
measured-parameter: inhibition at 1 µM (%)

// known answers, use as guide
> print(dat)
                                   compound  number
1  Cc1cc(N=S(C)(=O)C2CC2)cc2ncnc(Nc3ccc(F)cc3O[C@@H]3COC[C@@H]3O)c12 (mixture of isomers)      98
2  COc1cc(N=S2(=O)CCCC2)cc2ncnc(Nc3ccc(F)cc3O[C@H]3COC[C@H]3O)c12 (racemic)      99
3  COc1cc(N=S2(=O)CCC2)cc2ncnc(Nc3ccc(F)cc3O[C@H]3COC[C@@H]3O)c12     104
4  CO[C@@H]1COC[C@H]1Oc1cc(F)ccc1Nc1ncnc2cc(N=S(C)(C)=O)cc(C)c12 (racemic)      69

P. CO[C@@H]1CN(C)C[C@H]1Oc1cc(F)ccc1Nc1ncnc2cc(N=S(C)(C)=O)cc(C)c12
Q. Cc1cc(N=S(C)(C)=O)cc2ncnc(Nc3cccnc3O[C@H]3COC[C@@H]3O)c12
R. CO[C@@H]1CN(C(=O)OCc2ccccc2)C[C@H]1Oc1ncccc1Nc1ncnc2cc(N=S(C)(C)=O)cc(C)c12
stdin: Let's sort these by inhibition at 1 µM, smallest first. Go ahead? Output the labels ranked as instructed.
stdout: R, P, Q
